# ASSAY_NOTES: Metabolic stability in dog liver microsomes assessed as half-life measured upto 120 mins in presence of NADPH-generating system by LC/MS/MS analysis
# Assay type: ADME, Canis lupus familiaris, Microsome
MEASUREMENT_KIND: half-life (h)
Please respond with the number in h and leave the unit unwritten.

Could you share which half-life value was measured for COc1ccccc1CC[C@@H]1CCc2cc([C@H]3CC[C@](N)(CO)C3)ccc2C1 ? 6.2

###

# EXPERIMENTAL_TARGET: Cytochrome P450 2C19 (Homo sapiens)
# Sequence (P33261 whole entry): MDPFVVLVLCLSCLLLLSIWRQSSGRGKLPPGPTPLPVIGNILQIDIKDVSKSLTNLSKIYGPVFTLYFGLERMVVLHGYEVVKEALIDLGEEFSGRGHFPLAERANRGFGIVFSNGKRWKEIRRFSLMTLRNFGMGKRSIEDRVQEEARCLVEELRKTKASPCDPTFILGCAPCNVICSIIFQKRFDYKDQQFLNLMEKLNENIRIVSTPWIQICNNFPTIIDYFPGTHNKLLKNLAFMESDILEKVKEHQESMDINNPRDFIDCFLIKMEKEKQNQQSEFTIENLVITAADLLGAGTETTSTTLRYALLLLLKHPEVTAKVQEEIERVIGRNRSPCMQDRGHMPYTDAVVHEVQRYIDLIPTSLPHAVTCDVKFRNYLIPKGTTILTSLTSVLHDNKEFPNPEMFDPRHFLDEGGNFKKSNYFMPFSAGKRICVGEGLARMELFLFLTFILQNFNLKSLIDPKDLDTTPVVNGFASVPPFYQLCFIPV
MEASUREMENT_KIND: IC50

Which IC50 reading was recorded for the molecule COc1ccccc1CC[C@@H]1CCc2cc([C@H]3CC[C@](N)(CO)C3)ccc2C1 ? 6.9 µM

###

# ASSAY_NOTES: Terminal half-life in Sprague-Dawley rat at 1 mg/kg, iv
# Assay type: ADME, organism-based
# TEST_SETTINGS: in vivo, read-out: beta t1/2 (converted)
MEASUREMENT_KIND: half-life
The number alone won't do; follow it with the unit.

CCCCCC[C@@H]1CCc2cc([C@H]3CC[C@](N)(CO)C3)ccc2C1 | 131 h

Please look at the following molecule next.
For the molecule shown here, COc1ccccc1CC[C@@H]1CCc2cc([C@H]3CC[C@](N)(CO)C3)ccc2C1 , give the reported half-life. 38 h

###

# ASSAY_NOTES: Half-life in Lewis rat at 3 mg/kg, po measured over 72 hrs by LC-MS/MS analysis
# Assay type: ADME, organism-based
# TEST_SETTINGS: in vivo
MEASUREMENT_KIND: half-life

Reported half-life for CCCCCC[C@@H]1CCc2cc([C@H]3CC[C@](N)(CO)C3)ccc2C1 : what is it? > 75 h

###

# ASSAY_NOTES: Metabolic stability in rat liver microsomes assessed as half-life measured upto 120 mins in presence of NADPH-generating system by LC/MS/MS analysis
# Type: ADME, Microsome
MEASUREMENT_KIND: half-life (h)
# unit: h | format: bare number

Can you share its half-life? I mean this compound: COc1ccccc1CC[C@@H]1CCc2cc([C@H]3CC[C@](N)(CO)C3)ccc2C1 [UDIFITIMOD] 1.62

###

# ASSAY_NOTES: Oral bioavailability in Sprague-Dawley rat at 1 mg/kg
# Assay type: ADME, organism-based
# TEST_SETTINGS: in vivo
MEASUREMENT_KIND: bioavailability (%)
Expressed in %, but write only the number.

Looking for the measured bioavailability of COc1ccccc1CC[C@@H]1CCc2cc([C@H]3CC[C@](N)(CO)C3)ccc2C1 , can you help? 23

###

# EXPERIMENTAL_TARGET: Sphingosine 1-phosphate receptor 3 (Homo sapiens, UniProt Q99500)
# Sequence (Q99500 whole entry): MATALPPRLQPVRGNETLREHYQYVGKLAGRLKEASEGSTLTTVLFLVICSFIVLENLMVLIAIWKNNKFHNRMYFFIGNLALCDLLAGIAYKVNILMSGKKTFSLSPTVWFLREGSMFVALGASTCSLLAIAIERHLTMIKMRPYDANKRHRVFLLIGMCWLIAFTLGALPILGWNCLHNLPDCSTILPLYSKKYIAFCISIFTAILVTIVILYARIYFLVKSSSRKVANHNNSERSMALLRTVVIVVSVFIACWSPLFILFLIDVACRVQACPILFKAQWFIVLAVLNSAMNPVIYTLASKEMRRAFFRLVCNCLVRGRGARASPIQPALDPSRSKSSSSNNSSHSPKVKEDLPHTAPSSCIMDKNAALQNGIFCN
# ASSAY_NOTES: Agonist activity at human recombinant S1P3 expressed in CHO cell membranes assessed as stimulation of [35S]-GTPgammaS binding measured after 45 mins by liquid scintillation counting assay
pEC50: −log10 of the molar value.
MEASUREMENT_KIND: pEC50

CCCCCC[C@@H]1CCc2cc([C@H]3CC[C@](N)(COP(=O)(O)O)C3)ccc2C1 | < 6.00

Let's switch to this compound now.
// fetch Sphingosine 1-phosphate receptor 3 (Homo sapiens, UniProt Q99500) pEC50 for COc1ccccc1CC[C@@H]1CCc2cc([C@H]3CC[C@](N)(COP(=O)(O)O)C3)ccc2C1 < 6.00
